B1: KRT18 (parent)
chain: RAQYDELARKNREELDKYWSQQIE

variants of: B1; assay: protein stability index of a GFP-peptide fusion (GPS, HEK-293T) (PSI 1-6); higher = more stable; conditions: c terminus: a fixed tail appended;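 note: lentivirally expressed fusions sorted by FACS into six bins by GFP to DsRed ratio, PSI derived from sequencing read proportions per bin multiplied by bin number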
Kind request: treat 4 as inclusive, so protein stability index at 4 or higher is condition met, anything lower is condition not met.

- Macromolecule sequence: "RIQYDELARKNREELDKYWSQQIE [A2I]"
  Class label: "condition not met"

Has RAQYDELARKNREELDKYFSQQIE [W19F] a recorded protein stability index greater than or equal to 4? condition met

meta.source: the supplement of paper PMC10567573
